Test: Metabolite profiling and identification in plasma, urine and feces (LC/RAM/MS)
Format: in vivo, human
Experimental: The plasma samples from six subjects were pooled individually according to the AUC method to obtain 6 plasma samples of 0–72 h ([Hop et al., 1998]). […] The radioactivity in the organic solvent extract and the reconstitution solution was determined by LSC. The solid residue after extraction was dissolved by heating with 1N KOH solution and added to the scintillation solution to determine its radioactivity. All the final data were used to examine the recovery of radioactivity during plasma extraction. […]
Observable: P: %AUC in plasma (Figure 4) (%)
Please give a number only; it is taken to be in %.

Query: I am curious: what P: %AUC in plasma (Figure 4) value has been reported for "C[C@H](Nc1ncnc(N)c1C#N)c1cc2ncc(Cl)n2nc1-c1ccccc1" ?
Reply: 51.45

Query: I am curious: what P: %AUC in plasma (Figure 4) value has been reported for "C[C@H](Nc1ncnc(N)c1C#N)c1cc2ncc(Cl)n2nc1-c1ccc(O)cc1" ?
Reply: 0.12

Query: I am curious: what P: %AUC in plasma (Figure 4) value has been reported for "C[C@H](Nc1nc(O)nc(N)c1C#N)c1cc2ncc(Cl)n2nc1-c1ccccc1" ?
Reply: 20.91
